Listing of entries alongside the reported Autosampler stability (5 °C), Difference.
assay: Analyte stability in brain homogenate; format: physicochemical, human; conditions: 96 h, HQC 400.0 nM, vs freshly processed QC
Numbers only; they are read as %.

| compound | Autosampler stability (5 °C), Difference / % |
| --- | --- |
| CCN1CCN(Cc2ccc(Nc3ncc(F)c(-c4cc(F)c5nc(CO)n(C(C)C)c5c4)n3)nc2)CC1 [M20] | 2.7 |
| Cc1nc2c(F)cc(-c3nc(Nc4ccc(CN5CCNCC5)cn4)ncc3F)cc2n1C(C)C [M2] | 6.2 |
| CCN1CCN(Cc2ccc(Nc3ncc(F)c(-c4cc(F)c5nc(C)n(C(C)C)c5c4)n3)nc2)CC1 [Abemaciclib] | 3.3 |

Now let's try a different one.
Request: Specify measured Autosampler stability (5 °C), Difference for Cn1nccc1Nc1nccc(-c2cc3c(s2)C(C)(C)N(CCN2CCOCC2)C3=O)n1 [LY3214996] .
Result: 3.3

====

Experiment: Analyte stability in brain homogenate
Assay type: physicochemical, human
Details: 3 cycles, LQC 0.6 nM, vs freshly processed QC
Description: The stability of the analytes was studied under various storage and processing conditions. […] Short- and long-term stability studies of all analytes were conducted in human blank plasma and brain homogenate under several storage conditions. Analyte stability in biological matrices was analyzed using freshly prepared calibration standards and QC samples. The percentage difference between the stability and freshly processed QC was also assessed. […]
Listing of entries alongside the reported Freeze-thaw stability, Difference.

Answered examples (3):
| smiles_record | recorded_measurement |
| --- | --- |
| Cn1nccc1Nc1nccc(-c2cc3c(s2)C(C)(C)N(CCN2CCOCC2)C3=O)n1 | −7.9% |
| Cc1nc2c(F)cc(-c3nc(Nc4ccc(CN5CCNCC5)cn4)ncc3F)cc2n1C(C)C | −9.4% |
| CCN1CCN(Cc2ccc(Nc3ncc(F)c(-c4cc(F)c5nc(CO)n(C(C)C)c5c4)n3)nc2)CC1 | −1.5% |

Request: Specify measured Freeze-thaw stability, Difference for `CCN1CCN(Cc2ccc(Nc3ncc(F)c(-c4cc(F)c5nc(C)n(C(C)C)c5c4)n3)nc2)CC1` .
Result: −5.7%

====

assay: Analyte stability in brain homogenate; type: physicochemical, human; conditions: 22 h, LQC 0.6 nM, vs freshly processed QC
readout_name: Processed sample stability, Difference (%)
Numbers only; they are read as %.

| smiles_record | value_units | recorded_measurement |
| --- | --- | --- |
| CCN1CCN(Cc2ccc(Nc3ncc(F)c(-c4cc(F)c5nc(C)n(C(C)C)c5c4)n3)nc2)CC1 | % | 3.0 |
| CCN1CCN(Cc2ccc(Nc3ncc(F)c(-c4cc(F)c5nc(CO)n(C(C)C)c5c4)n3)nc2)CC1 | % | 2.7 |
| Cn1nccc1Nc1nccc(-c2cc3c(s2)C(C)(C)N(CCN2CCOCC2)C3=O)n1 | % | 2.1 |

Now let's try a different one.
Request: Specify measured Processed sample stability, Difference for `Cc1nc2c(F)cc(-c3nc(Nc4ccc(CN5CCNCC5)cn4)ncc3F)cc2n1C(C)C` .
Result: 10.0

====

assay: Analyte stability in brain homogenate; type: physicochemical, human; settings: 3 cycles, HQC 400.0 nM, vs freshly processed QC
readout_name: Freeze-thaw stability, Difference
Please answer in the form of a number followed by its unit of measurement.

Answered examples (2):
| molecule | Freeze-thaw stability, Difference |
| --- | --- |
| Cc1nc2c(F)cc(-c3nc(Nc4ccc(CN5CCNCC5)cn4)ncc3F)cc2n1C(C)C [M2] | −6.8% |
| CCN1CCN(Cc2ccc(Nc3ncc(F)c(-c4cc(F)c5nc(C)n(C(C)C)c5c4)n3)nc2)CC1 [Abemaciclib] | −3.2% |

Request: Specify measured Freeze-thaw stability, Difference for Cn1nccc1Nc1nccc(-c2cc3c(s2)C(C)(C)N(CCN2CCOCC2)C3=O)n1 [LY3214996] .
Result: 1.1%

Request: Specify measured Freeze-thaw stability, Difference for CCN1CCN(Cc2ccc(Nc3ncc(F)c(-c4cc(F)c5nc(CO)n(C(C)C)c5c4)n3)nc2)CC1 [M20] .
Result: 1.4%
